- Species: Rattus norvegicus
- Assay explanation: Open TG-GATES - Regimen: Daily Repeat
- Assay type: toxicity, organism-based, Sprague-Dawley
- Parameters: regimen Daily Repeat, gender Male, age 6 weeks
- Measurement setup: in vivo, po, 100 mg/kg, […], route gavage, dose level Low, time 14 day
Readings of TERMINAL_BW for the listed compounds
Property measured: TERMINAL_BW (g)

{"columns": ["Record smiles", "Numeric value"],
 "data": [
  ["Cc1nnc2n1-c1ccc(Cl)cc1C(c1ccccc1Cl)=NC2", 311.7],
  ["O=C(OC[C@H]1O[C@@H](OC(=O)c2cc(O)c(O)c(OC(=O)c3cc(O)c(O)c(O)c3)c2)[C@H](OC(=O)c2cc(O)c(O)c(OC(=O)c3cc(O)c(O)c(O)c3)c2)[C@@H](OC(=O)c2cc(O)c(O)c(OC(=O)c3cc(O)c(O)c(O)c3)c2)[C@@H]1OC(=O)c1cc(O)c(O)c(OC(=O)c2cc(O)c(O)c(O)c2)c1)c1cc(O)c(O)c(OC(=O)c2cc(O)c(O)c(O)c2)c1", 296.1],
  ["CCOc1ccc(NC(C)=O)cc1", 323.2],
  ["COC(=O)C1=C(C)NC(C)=C(C(=O)OC)C1c1ccccc1[N+](=O)[O-]", 322.2],
  ["CNC(=C[N+](=O)[O-])NCCSCc1ccc(CN(C)C)o1", 314.1],
  ["CN/C(=N/CCSCc1nc[nH]c1C)NC#N", 308.9]
]}
